protocol-summary: BSK_SAg_SRB: Viability Assessment in the BioMAP Diversity Plus: SAg Assay (AID 2283096);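 also: cells read one day after compound addition; hits may be either gain or loss of signal compared with DMSO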
condition-label: primary human HUVEC with PBMC
Activity calls are given as the source filed them. The calls were made as follows: active = hit-call score of the fitted dose curve at least 0.9, where 1 is the maximum; inactive = score below 0.9.
readout-name: AC50

CC(C)=CCC/C(C)=C/CO
inactive
CC(O)CN(CCN(CC(C)O)CC(C)O)CC(C)O (stereo not given)
inactive
COC(=O)c1ccccc1O
inactive
O=C1CCC(N2C(=O)c3ccccc3C2=O)C(=O)N1 (stereo not given)
inactive
CC(C)c1cccc(C(C)C)c1N1C(=O)c2ccc(O)cc2C1=O
19.3 µM (active)
Nc1nc2ncc(CNc3ccc(C(=O)N[C@@H](CCC(=O)O)C(=O)O)cc3)nc2c(=O)[nH]1
inactive

Now look at this one.
Query :: # lookup: AC50 of Cn1cnc([N+](=O)[O-])c1Sc1ncnc2nc[nH]c12
Result :: inactive

----------
protocol-summary: APR_HepG2_CellCycleArrest_24hr: Apredica 24-hour HepG2 Assay for Cell Cycle Arrest (AID 2282905);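 also: cell cycle arrest scored as ratio of 2N to 4N nuclear DNA content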
condition-label: imaging, actives raise or lower the signal
Calls of active or inactive are those of the source. Rule for the calls: active = hit-call score of the fitted dose curve at least 0.9, where 1 is the maximum; inactive = score below 0.9.
One label from this list, please: YES for active, NO for inactive

CC1(C)C(=O)N(Br)C(=O)N1Br
NO
CC(C)CCO
NO
CCNc1ccccc1
NO

Now consider the entry below.
Query :: Dear all, I need the recorded test outcome for COCCOCCOCCOC , thank you.
Result :: NO

----------
protocol-summary: BSK_4H_Eotaxin3: BioMAP Diversity Plus: 4H Assay for Eotaxin 3 Biomarker Activity (AID 2283000)
condition-label: primary human endothelial cells (HUVEC); actives raise or lower the signal
Calls of active or inactive are those of the source. How the source made its calls: active means hit-call score of the fitted dose curve at least 0.9, where 1 is the maximum; inactive means score below 0.9.
One label from this list, please: Y (active), N (inactive)

COc1ccc2sc(C(=O)Nc3nnn[nH]3)c(OC(C)C)c2c1
Y

Query :: Assay result, entry C=CCCCCCCCCC(=O)O — outcome?
Result :: N

Query :: Here is the next compound: CCCCC(CC)COC(=O)c1ccc(C(=O)OCC(CC)CCCC)cc1 (stereo not given)
Result :: N

Query :: Another compound: CC(O)CN(CCN(CC(C)O)CC(C)O)CC(C)O (stereo not given)
Result :: N

Query :: Repeat with COC(=O)CC(=O)OC
Result :: N

Query :: Same question, CC(C)c1cccc(C(C)C)c1N1C(=O)c2ccc(O)cc2C1=O this time
Result :: Y

Query :: Another: CC/C(=C\C(=N/O)C(N)=O)C(C)[N+](=O)[O-] (stereo not given)
Result :: N

Query :: Next record, please: C1N2CN3CN1CN(C2)C3
Result :: N

Query :: Subsequent entry: COc1cccc(-c2ccc(/C=C\CN3CCCCCC3)cc2Cl)c1
Result :: Y

Query :: Would you kindly repeat that for O=C(O)CCN(C1(C(=O)NO)CCCC1)S(=O)(=O)c1ccc(Oc2ccc(F)cc2)cc1 ?
Result :: N

Query :: What do we get for CC(C)CCO ?
Result :: N

----------
Read-out: Collagen III, COL3A1 (gene 1281)
protocol-summary: BSK_hDFCGF_CollagenIII: BioMAP Diversity Plus: hDFCGF Assay for Collagen III Biomarker Activity (AID 2283056)
condition-label: primary human foreskin fibroblasts; actives raise or lower the signal
Active and inactive are the calls of the source. Rule for the calls: active = hit-call score of the fitted dose curve at least 0.9, where 1 is the maximum; inactive = score below 0.9.
Allowed answers: class 1 (active), class 0 (inactive)

// below: answered molecules
Nc1cccc(N)c1
class 0
Nc1ccc(Nc2ccccc2)cc1
class 0
O=c1[nH]c2ccc(S(=O)CCN3CCC(Cc4ccc(F)cc4)CC3)cc2o1 (centres undefined)
class 1
CCNc1ccccc1
class 0
O=C(O)CCN(C1(C(=O)NO)CCCC1)S(=O)(=O)c1ccc(Oc2ccc(F)cc2)cc1
class 0
CNCc1ccc(NC(=O)c2c[nH]c3c2C(=O)CCC3)cc1
class 0

Query :: Lab log entry: CNS(=O)(=O)c1cc(C(=O)N2CCC(CCN3C4CCC3CC(n3c(C)nc5ccccc53)C4)(c3cccc(F)c3)CC2)c(Cl)cc1F (centres undefined) — outcome as called in the assay?
Result :: class 1

Query :: Also, CC(C)(O)c1coc(S(=O)(=O)NC(=O)Nc2c3c(cc4c2CCC4)CCC3)c1 please.
Result :: class 0

Query :: Now consider CC(C)=CCC/C(C)=C\CO .
Result :: class 0

----------
Test system: guinea pig Histamine Receptor (H2), gene 100729734
protocol-summary: NVS_GPCR_gH2: NovaScreen (NVS) G Protein-Coupled Receptor Assay for guinea pig Histamine Receptor (H2) (AID 2283342)
Inconclusive results are not listed. Active and inactive are the calls of the source. Rule for the calls: active = hit-call score of the fitted dose curve at least 0.9, where 1 is the maximum; inconclusive = response in the unintended direction; inactive = score below 0.9.
Outcomes you can answer with include only these: TRUE for active, FALSE for inactive

Example results:
O=c1[nH]c2ccc(S(=O)CCN3CCC(Cc4ccc(F)cc4)CC3)cc2o1 (stereo not given)
TRUE
CCOC(=O)c1ccc(C2CCC(NC[C@H](O)COc3ccc(O)c(NS(C)(=O)=O)c3)CC2)cc1 (stereo not given in full)
TRUE
COc1cccc(-c2ccc(/C=C\CN3CCCCCC3)cc2Cl)c1
TRUE
COCCOc1cc2cc(C(=O)NC3CCN(C(C)C)CC3)n(CC(=O)Nc3ccc(Cl)cn3)c2cn1
TRUE
CCOC(=O)COc1ccc2c(c1)CC(NCC(O)c1cccc(Cl)c1)CC2 (stereo not given)
TRUE
O=C(CCCCCCCCc1cccnc1)N1CCC(C=C(c2ccccc2)c2ccccc2)CC1
FALSE

Query :: Test call for this molecule, please: Cc1[nH]cnc1C[C@H]1CCc2c(C)c3ccccc3n2C1=O
Result :: TRUE

Query :: Similarly, CCCN(C1CCN(C(=O)C2CCNCC2)CC1)[C@@H]1CCc2ccc(OC)cc2C1 ?
Result :: TRUE

Query :: // next record COc1ccc(-n2nc(C(F)F)cc2-c2ccc(S(C)=O)cc2)cc1 (stereo not given)
Result :: TRUE

Query :: Now the molecule CCc1cc(SCc2sc(-c3ccc(C(F)(F)F)cc3)nc2CN2CCN(c3ccc(OC)cc3)CC2)ccc1OCC(=O)O
Result :: TRUE

----------
Read-out: Glutathione S-Transferase (GSTA2), GSTA2 (gene 2939)
protocol-summary: LTEA_HepaRG_GSTA2: Life Technologies and Expression Analysis (LTEA) Assay for Glutathione S-Transferase (GSTA2) using HepaRG (AID 2283497)
condition-label: mRNA level, 48 h; actives raise or lower the signal
The source made the active and inactive calls. How the source made its calls: active means hit-call score of the fitted dose curve at least 0.9, where 1 is the maximum; inactive means score below 0.9.
Answer with one of the outcomes given here: active, inactive

Previously resolved entries follow.
Nc1nc2ncc(CNc3ccc(C(=O)N[C@@H](CCC(=O)O)C(=O)O)cc3)nc2c(=O)[nH]1
inactive
CC(C)(O)c1coc(S(=O)(=O)NC(=O)Nc2c3c(cc4c2CCC4)CCC3)c1
inactive
CCn1nc(Cc2ccccc2)cc1C1CCN(C[C@H]2C[C@H](N(C)[C@@H](C(=O)O)C(C)C)C[C@@H]2c2cccc(F)c2)CC1
active
CC[C@H]1CC[C@H](NCc2cc3c(cc2OC)[C@H]2C[C@H]2C(=O)N3C)[C@H](c2ccccc2)N1
inactive

Query :: Call for entry CC(C)=CCCC(C)CCO (configuration not stated) :
Result :: inactive

Query :: Further, for O=C(O)c1cccc(N(Cc2cccnc2)c2ccc(OC(F)F)c(OC(F)F)c2)c1 ?
Result :: inactive

Query :: Can you handle O=c1[nH]c2ccc(S(=O)CCN3CCC(Cc4ccc(F)cc4)CC3)cc2o1 (configuration not stated) next?
Result :: active

Query :: Moving on to the next compound: O=C(O)CCN(C1(C(=O)NO)CCCC1)S(=O)(=O)c1ccc(Oc2ccc(F)cc2)cc1
Result :: inactive

Query :: Again, but for CCCCC(CC)COC(=O)CCCCCCCCC(=O)OCC(CC)CCCC (configuration not stated)
Result :: inactive

Query :: Also need O=C(O)c1cccc(Oc2ccccc2)c1 , thanks.
Result :: inactive

Query :: Also, Nc1ccc(Nc2ccccc2)cc1 please.
Result :: inactive

Query :: What do you get for CC[C@H](C)C(=O)O[C@H]1C[C@@H](C)C=C2C=C[C@H](C)[C@H](CC[C@@H]3C[C@@H](O)CC(=O)O3)[C@H]21 ?
Result :: inactive

----------
Read-out: growth arrest and DNA damage 45 (GADD45A), GADD45A (gene 1647)
protocol-summary: LTEA_HepaRG_GADD45A: Life Technologies and Expression Analysis (LTEA) Assay for growth arrest and DNA damage 45 (GADD45A) using HepaRG (AID 2283458)
condition-label: mRNA level, 48 h; actives raise or lower the signal
Activity calls are given as the source filed them. How the source made its calls: active means hit-call score of the fitted dose curve at least 0.9, where 1 is the maximum; inactive means score below 0.9.
Just give me one of these, please: Yes (active), No (inactive)

CC(C)CCCCCCOC(=O)c1ccc(C(=O)OCCCCCCC(C)C)c(C(=O)OCCCCCCC(C)C)c1
No
CCC(C)(C)C(=O)O[C@H]1C[C@@H](C)C=C2C=C[C@H](C)[C@H](CC[C@@H]3C[C@@H](O)CC(=O)O3)[C@H]21
No
On1ccccc1=S
No
CNS(=O)(=O)c1cc(C(=O)N2CCC(CCN3C4CCC3CC(n3c(C)nc5ccccc53)C4)(c3cccc(F)c3)CC2)c(Cl)cc1F (configuration not stated)
No
Fc1ccccc1[C@@H](F)COC1CCC(Nc2ncnc3[nH]ncc23)CC1 (some centres not stated)
No

Query :: Which outcome was assigned to Cc1[nH]cnc1C[C@H]1CCc2c(C)c3ccccc3n2C1=O in this test?
Result :: Yes

Query :: Another: COCCOCCOCCOC
Result :: No

Query :: Quick one: CC(C)=CCC/C(C)=C/CO
Result :: No

Query :: Also, O=C(O)c1cccc(Oc2ccccc2)c1 please.
Result :: No

Query :: What do you have for Cn1c(=O)c2c(ncn2C)n(C)c1=O ?
Result :: No

Query :: Please answer likewise for Cc1ccc(S(=O)(=O)O)cc1C
Result :: No
